Values from PubChem BioAssay AID1159580

assay: chemical genetic growth profiling, strain panel (AID 1159580);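 also: tested at 20 µM; growth read once vehicle control cultures reached saturation at 30 °C; 1 = growth at the plate median or of vehicle wells; lower values mean less growth of the strain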; details: S. cerevisiae deletion strains, growth OD, locus YMR205C, strain PFK2, active compounds read low
The whole screen tested about 5,500 compounds, of which about 2,000 (36%) were called active. Another 18% or so got no clear call; they are omitted. This is one part of the list.

# compound, normalized growth
records = [
    ("NCCCN", "1.02 (inactive)"),
    ("Cc1ncc(CO)c(CO)c1O", "1.05 (inactive)"),
    ("C[C@@H]1CCC2[C@](C)(CO)[C@@H](O)CC[C@]2(C)[C@@]12CC[C@@](CO)(CCO)O2 (some centres undefined)", "1.01 (inactive)"),
    ("COc1nc(NC(C)C)nc(NC(C)C)n1", "1.01 (inactive)"),
]

----------
assay: chemical genetic growth profiling, strain panel (AID 1159580);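 also: tested at 20 µM; growth read once vehicle control cultures reached saturation at 30 °C; 1 = growth at the plate median or of vehicle wells; lower values mean less growth of the strain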; settings: S. cerevisiae deletion strains, growth OD, locus YML120C, strain ndi1
In all, about 5,500 compounds went through this assay and about 2,000 (36%) were called active. Another 18% or so got no clear call; they are omitted. Cut-off read from the data, not from the text of the source: active = normalized growth mostly below about 0.91 (no sharp cut-off); inconclusive = no clear call, values can overlap the other calls; inactive = mostly above about 0.92. Some of the results follow.
Classes used: True (active), False (inactive)

# compound, label
rows = [
    ("CCC(=O)OCC(=O)C1(OC(=O)CC)C(C)CC2C3CCC4=CC(=O)C=CC4(C)C3(Cl)C(O)CC21C (stereo unspecified)", "False"),
    ("CC1(C)Oc2ccc3ccc(=O)oc3c2CC1O (stereo unspecified)", "False"),
    ("COc1cc(C(=O)N2CCOCC2)cc(OC)c1OC", "False"),
    ("CC1(C)C(=O)CC[C@@]2(C)C1C[C@@H](O)[C@@]1(C)C3=CC(=O)O[C@@H](c4ccoc4)[C@]3(C)CCC21 (stereo partly specified)", "False"),
    ("CC[C@@]1(O)C(=O)OCc2c1cc1n(c2=O)Cc2cc3cc(O)ccc3nc2-1", "False"),
    ("CCCCCC(O)C1C(=O)OC(C)C(O)/C=C/C=C/C=C/C=C/C=C(\\C)C(O)CC(O)CC(O)CC(O)CC(O)CC(O)CC1O (stereo unspecified)", "False"),
    ("Oc1ccc2c3c1OC1[C@@H](O)CC[C@@]4(O)[C@@H](C2)N(CC2CCC2)CC[C@]314 (stereo partly specified)", "False"),
    ("O=c1c(-c2ccc(O)cc2)coc2c(C3O[C@H](CO)[C@@H](O)[C@H](O)[C@H]3O)c(O)ccc12 (stereo partly specified)", "False"),
    ("CC1=CC(=O)C2C(C)(C)CCC[C@]2(C)[C@@]1(O)CCc1ccoc1 (stereo partly specified)", "False"),
    ("CC1(C)C(O)CC(=O)C2(C)C1CC(O)C1(C)C2CCC2(C)C(c3ccoc3)OC(=O)C3OC321 (stereo unspecified)", "False"),
    ("C/C=C(\\C)C(=O)O[C@@H]1c2c(ccc3ccc(=O)oc23)OC(C)(C)[C@@H]1OC(C)=O", "False"),
    ("C[C@H]1O[C@@H](O[C@H]2[C@@H](O)C[C@H](O[C@H]3[C@@H](O)C[C@H](O[C@H]4CC[C@]5(C)C6CC[C@]7(C)[C@@H](C8=CC(=O)OC8)CC[C@]7(O)C6CC[C@@H]5C4)O[C@@H]3C)O[C@@H]2C)C[C@H](O)[C@@H]1O (stereo partly specified)", "False"),
    ("CC(C)C[C@@H](NC(=O)OCC1c2ccccc2-c2ccccc21)C(=O)O", "False"),
    ("CSc1nc(NC(C)C)nc(NC(C)C)n1", "False"),
    ("COc1c(O)cc2c(c1O)[C@H]1O[C@H](CO)[C@@H](O)[C@H](O)[C@@H]1OC2=O", "False"),
    ("Nc1ccc(S(=O)(=O)Nc2ncccn2)cc1", "False"),
    ("COC(=O)CC1C(C)(C)C(OC(C)=O)[C@@H]2[C@@H](OC(C)=O)[C@]34O[C@@]2(O)[C@]1(C)C3CC[C@]1(C)C4=CC(=O)O[C@H]1c1ccoc1 (stereo partly specified)", "False"),
    ("CC(=O)N1CCN(c2ccc(OCC3CO[C@](Cn4ccnc4)(c4ccc(Cl)cc4Cl)O3)cc2)CC1 (stereo partly specified)", "True"),
    ("CCCCC(=O)O[C@]1(C(=O)CO)[C@@H](C)CC2C3CCC4=CC(=O)C=C[C@]4(C)[C@@]3(F)C(O)C[C@@]21C (stereo partly specified)", "False"),
    ("CC1(C)[C@@H]2CC[C@@]1(C)C(=O)C2", "False"),
    ("CCC(=O)OCC(=O)C1(OC(=O)CC)C(C)CC2C3C(Cl)CC4=CC(=O)C=CC4(C)C3C(O)CC21C (stereo unspecified)", "False"),
    ("CC(=O)OC1CC[C@@]2(C)C(CCC3C2CC[C@]2(C)C(C4=CC(=O)OC4)C(OC(C)=O)CC32O)C1 (stereo partly specified)", "False"),
    ("CC(C)c1cccc(C(C)C)c1O", "False"),
    ("CNC[C@H](O)c1cccc(O)c1", "False"),
    ("NC[C@H]1O[C@H](OC2[C@@H](N)C[C@@H](N)[C@H](O[C@H]3O[C@H](CO)[C@@H](O)[C@H](N)[C@H]3O)[C@H]2O)[C@H](O)[C@@H](O)[C@@H]1O (stereo partly specified)", "False"),
    ("N#Cc1c(Cl)cccc1Cl", "False"),
    ("O=C(/C=C(\\O)c1ccccc1)c1ccccc1O", "True"),
    ("C[C@H]1O[C@@H](O[C@H]2[C@@H](O)C[C@H](O[C@H]3[C@@H](O)C[C@H](O[C@H]4CC[C@]5(C)C6C[C@@H](O)[C@]7(C)[C@@H](C8=CC(=O)OC8)CC[C@]7(O)C6CC[C@@H]5C4)O[C@@H]3C)O[C@@H]2C)C[C@H](O)[C@@H]1O (stereo partly specified)", "False"),
    ("C=CCSCC=C", "False"),
    ("CC1(C)S[C@@H]2[C@H](NC(=O)C(C(=O)O)c3ccccc3)C(=O)N2[C@H]1C(=O)O (stereo partly specified)", "False"),
    ("O=C(O)c1ccccc1O", "False"),
    ("CC(=O)O[C@@H]1c2c(ccc3ccc(=O)oc23)OC(C)(C)[C@@H]1OC(=O)CC(C)C", "False"),
    ("COC(=O)N/N=C\\c1c[n+]([O-])c2ccccc2[n+]1[O-]", "False"),
    ("NC(=O)c1ccccc1O", "False"),
    ("COC1CC(OC2CCC3(C)C(CCC4C3CCC3(C)C(C5=CC(=O)OC5)C(OC(C)=O)CC43O)C2)OC(C)C1O (stereo unspecified)", "False"),
    ("CC[C@@]1(O)C(=O)OCc2c1cc1n(c2=O)Cc2cc3ccccc3nc2-1", "True"),
]

----------
experiment: chemical genetic growth profiling, strain panel (AID 1159580);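 also: tested at 20 µM; growth read once vehicle control cultures reached saturation at 30 °C; 1 = growth at the plate median or of vehicle wells; lower values mean less growth of the strain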; settings: S. cerevisiae deletion strains, growth OD, locus YGL240W, strain doc1
Out of some 5,500 compounds screened, about 2,000 (36%) were called active. Not shown: some 18% with an inconclusive outcome. Cut-off read from the data, not from the text of the source: active = normalized growth mostly below about 0.91 (no sharp cut-off); inconclusive = no clear call, values can overlap the other calls; inactive = mostly above about 0.92. Some of the results follow.
Classes used: 1.0 = active, 0.0 = inactive

# molecule, label
records = [
    ("OC1(c2ccc(Cl)c(C(F)(F)F)c2)CCN(CCCC(c2ccc(F)cc2)c2ccc(F)cc2)CC1", 1.0),
    ("CC1(C)C(=O)CC[C@@]2(C)C1C[C@@H](O)[C@@]1(C)C3=CC(=O)O[C@@H](c4ccoc4)[C@]3(C)CCC21 (stereo partly drawn)", 0.0),
    ("CCn1nc(C(=O)O)c(=O)c2cc3c(cc21)OCO3", 0.0),
    ("NC[C@@H]1O[C@H](O[C@@H]2[C@@H](CO)OC(O[C@@H]3[C@@H](O)[C@H](N)C[C@H](N)[C@H]3O[C@H]3O[C@H](CO)[C@@H](O)[C@H](O)[C@H]3N)[C@@H]2O)[C@H](N)[C@@H](O)[C@@H]1O (stereo partly drawn)", 0.0),
    ("CN[C@H]1CC[C@@H](c2ccc(Cl)c(Cl)c2)c2ccccc21", 0.0),
    ("O=C1CC2(CCCC2)CC(=O)N1CCCCN1CCN(c2ncccn2)CC1", 0.0),
    ("CCC(=O)NCC[C@@H]1CCc2ccc3c(c21)CCO3", 0.0),
    ("COC1=CC(C)[C@@H]2C[C@H]3OC(=O)C[C@H]4C(C)=C(OC)C(=O)C([C@@]34C)[C@@]2(C)C1=O (stereo partly drawn)", 0.0),
]

----------
assay: chemical genetic growth profiling, strain panel (AID 1159580);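 also: tested at 20 µM; growth read once vehicle control cultures reached saturation at 30 °C; 1 = growth at the plate median or of vehicle wells; lower values mean less growth of the strain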; conditions: S. cerevisiae deletion strains, growth OD, locus YCL011C, strain gbp2, active compounds read low
Screen size: about 5,500 compounds; about 2,000 (36%) were called active. Roughly 18% stayed inconclusive and do not appear here. This is one part of the list.
So basically: is normalized growth under 1? Then class 1. Not under? Then class 0.

# compound, label
rows = [
    ("COc1ccc(-c2cc(=O)c3c(O)cc(O)cc3o2)cc1", "class 1"),
    ("C=CCSCC=C", "class 1"),
    ("CO[C@@H]1[C@@H](OC(N)=O)[C@@H](O)[C@H](Oc2ccc3c(O)c(NC(=O)c4ccc(O)c(CC=C(C)C)c4)c(=O)oc3c2C)OC1(C)C", "class 0"),
    ("CC[C@@]1(O)C(=O)OCc2c1cc1n(c2=O)Cc2cc3ccccc3nc2-1", "class 1"),
    ("O=c1c(-c2ccc(O)cc2)coc2c(C3O[C@H](CO)[C@@H](O)[C@H](O)[C@H]3O)c(O)ccc12 (stereo partly drawn)", "class 1"),
    ("O=c1c(O)cc([C@H]2Oc3cc(O)cc(O)c3C[C@H]2O)cc2c([C@H]3Oc4cc(O)cc(O)c4C[C@H]3O)cc(O)c(O)c12", "class 0"),
    ("C=CCSSCC=C", "class 0"),
    ("Nc1ccc(S(=O)(=O)Nc2ncccn2)cc1", "class 1"),
    ("Cc1cc(N)c2ccccc2[n+]1CCCCCCCCCC[n+]1c(C)cc(N)c2ccccc21", "class 1"),
    ("C[C@H]1O[C@H](O[C@H]2[C@H](O)[C@@H](O)[C@@H](O[C@H]3[C@H](O)[C@@H](O)C(O)O[C@@H]3CO)O[C@@H]2CO)[C@H](O)[C@@H](O)[C@@H]1N[C@H]1C=C(CO)[C@@H](O)[C@H](O)[C@H]1O (stereo partly drawn)", "class 0"),
    ("OC1(c2ccc(Cl)c(C(F)(F)F)c2)CCN(CCCC(c2ccc(F)cc2)c2ccc(F)cc2)CC1", "class 1"),
]
